Taken from patent EP4603105A1.

biological target: GDP-bound KRAS wild-type protein (Homo sapiens); assay: Binding to KRAS by surface plasmon resonance (SPR), dissociation constant KD; settings: Single Cycle Kinetics, 1:1 binding model
Sequence (P01116 1-188 isoform P01116-2): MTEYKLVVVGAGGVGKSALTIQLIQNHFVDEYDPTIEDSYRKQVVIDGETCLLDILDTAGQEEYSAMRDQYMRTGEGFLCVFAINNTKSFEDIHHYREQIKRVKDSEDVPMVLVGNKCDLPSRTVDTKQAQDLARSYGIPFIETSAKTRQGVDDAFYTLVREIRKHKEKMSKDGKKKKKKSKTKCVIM
pKd: −log10 of the molar value.
So basically, the class depends on measured pKd, and the ranges are low (below 9), mid (9 to below 10), high (10 or more)

Some solved entries appear below for comparison.
## Input Class for `CCCOC[C@H]1C(=O)N[C@@H]([C@@H](C)CC)C(=O)N(C)CC(=O)N(C)[C@H]2C/C=C\CCN(C2=O)[C@@H](Cc2ccc(C)cc2)C(=O)N(C)CC(=O)N[C@@H](CCc2cc(F)c(C(F)(F)F)c(F)c2)C(=O)N2C[C@H](OCC)C[C@H]2C(=O)NC2(CC(C)(C)C2)C(=O)N(C)[C@@H](C2CCCC2)C(=O)N(C)[C@H](C(=O)N(CC)CC)CC(=O)N1C` ?
## Output mid

## Input # classify by pKd band: `CCO[C@@H]1C[C@H]2C(=O)NC3(CCC3)C(=O)N(C)[C@@H](C3CCCC3)C(=O)N(C)[C@@H](C(=O)N(C)C)CC(=O)N(C)[C@@H](CC)C(=O)N[C@@H]([C@@H](C)CC)C(=O)N(C)CC(=O)N(C)[C@H]3C/C=C\CCN(C3=O)[C@@H](Cc3ccc(C(F)(F)F)cc3)C(=O)N(C)CC(=O)N[C@@H](CCc3cc(F)c(C(F)(F)F)c(F)c3)C(=O)N2C1`
## Output low

---
## Input Which category does the recorded pKd put `CCO[C@@H]1C[C@H]2C(=O)NC3(CCC3)C(=O)N(C)[C@@H](C3CCCC3)C(=O)N(C)[C@H](C(=O)N(C)C)CC(=O)N(C)[C@@H](CC3CC3)C(=O)N[C@@H]([C@@H](C)CC)C(=O)N(C)CC(=O)N(C)[C@H]3C/C=C\CCN(C3=O)[C@@H](Cc3ccc(C)cc3)C(=O)N(C)CC(=O)N[C@@H](CCc3ccc(Cl)c(Cl)c3)C(=O)N2C1` in?
## Output mid

## Input Input `CC[C@H](C)[C@@H]1NC(=O)[C@H](CC)N(C)C(=O)C[C@@H](C(=O)N(C)C)N(C)C(=O)[C@H](C2CCCC2)N(C)C(=O)C2(CCC2)N(C)C(=O)[C@@H]2CCCN2C(=O)[C@H](CCc2cc(F)c(C(F)(F)F)c(F)c2)NC(=O)CN(C)C(=O)[C@H](Cc2ccc(C)cc2)N2CC/C=C\C[C@@H](C2=O)N(C)C(=O)CN(C)C1=O` ; output its category
## Output high
